# testedOn: 11-beta-hydroxysteroid dehydrogenase 1 (Homo sapiens)
# Sequence (P28845 whole entry, looked up): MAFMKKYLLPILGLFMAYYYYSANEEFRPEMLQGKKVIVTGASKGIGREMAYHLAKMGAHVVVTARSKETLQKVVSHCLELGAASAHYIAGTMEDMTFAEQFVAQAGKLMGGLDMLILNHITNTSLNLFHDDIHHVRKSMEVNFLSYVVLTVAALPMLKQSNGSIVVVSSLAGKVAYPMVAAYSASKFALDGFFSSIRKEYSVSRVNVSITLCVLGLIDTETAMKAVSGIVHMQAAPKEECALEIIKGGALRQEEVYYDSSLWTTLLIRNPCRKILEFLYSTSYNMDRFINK
# assaySummary: Ratio of curcumin IC50 to compound IC50 for human 11beta-HSD1 transfected in CHOP cells
# Format: cell-based
parameter: Ratio IC50
Please reply with the number alone, leaving off any unit.

structureString: O=C(/C=C/c1ccccc1Br)/C=C/c1ccccc1Br
valueReported: 9

structureString: O=C1/C(=C/c2ccccc2Br)CC/C1=C\c1ccccc1Br
valueReported: 9

structureString: COc1cc(/C=C/C(=O)/C=C/c2ccc(O)c(OC)c2)ccc1O
valueReported: 5

structureString: O=C1/C(=C/c2ccccc2Br)CCC/C1=C\c1ccccc1Br
valueReported: 9

Provide value of Ratio IC50 for this record tested with 11-beta-hydroxysteroid dehydrogenase 1 (Homo sapiens): O=C(/C=C/c1ccc(O)cc1)/C=C/c1ccc(O)cc1
5

Moving on to O=C1/C(=C/c2cccc(Br)c2)CC/C1=C\c1cccc(Br)c1
9

Moving on to O=C1/C(=C/c2ccc(O)cc2)CCC/C1=C\c1ccc(O)cc1
5

Moving on to O=C(/C=C/c1ccc(F)cc1)/C=C/c1ccc(F)cc1
9

Moving on to O=C1/C(=C/c2ccc(F)cc2)CCC/C1=C\c1ccc(F)cc1
9

Moving on to O=C1/C(=C/c2ccc(F)cc2)CC/C1=C\c1ccc(F)cc1
9

====

Below, each entry is listed alongside its reported inhibition.
# testedOn: 11-beta-hydroxysteroid dehydrogenase 1 (Homo sapiens)
# assaySummary: Inhibition of 11beta-HSD1 in human liver microsomes using [3H]-cortisone as substrate assessed as formation of cortisol at 100 uM after 60 to 90 mins by radiometric analysis relative to control
# conditionSet: Microsome
Express your answer as a number followed by its unit.

Suppose we examine the molecule O=C1/C(=C/c2ccc(OC3CCCCO3)cc2)CCC/C1=C\c1ccc(OC2CCCCO2)cc1 (stereo unspecified) ; what inhibition value has been reported?
14%

Moving on to COc1cc(/C=C2\CC/C(=C\c3ccc(O)c(OC)c3)C2=O)ccc1O
49%

Moving on to COc1cc(/C=C2\CC/C(=C\c3cc(OC)c(OC)c(OC)c3)C2=O)cc(OC)c1OC
16%

Moving on to C=CCOc1ccc(/C=C2\CC/C(=C\c3ccc(OCC=C)cc3)C2=O)cc1
28%

Moving on to O=C(/C=C/c1ccc(F)cc1)/C=C/c1ccc(F)cc1
37%

Moving on to O=C(/C=C/c1ccc(OC2CCCCO2)cc1)/C=C/c1ccc(OC2CCCCO2)cc1 (stereo unspecified)
36%

====

# testedOn: 11-beta-hydroxysteroid dehydrogenase 1 (Rattus norvegicus) (UniProt P16232)
# Sequence (P16232 whole entry, looked up): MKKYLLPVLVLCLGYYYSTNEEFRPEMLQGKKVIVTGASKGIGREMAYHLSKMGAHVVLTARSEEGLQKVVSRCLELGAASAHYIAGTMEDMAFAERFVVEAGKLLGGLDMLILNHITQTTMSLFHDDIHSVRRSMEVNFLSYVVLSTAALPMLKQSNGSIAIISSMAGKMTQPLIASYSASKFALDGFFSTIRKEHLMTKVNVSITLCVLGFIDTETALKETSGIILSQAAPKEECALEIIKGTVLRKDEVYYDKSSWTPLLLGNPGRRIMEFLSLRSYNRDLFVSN
# assaySummary: Inhibition of 11beta-HSD1 in rat testis microsomes using [3H]-11-DHC as substrate assessed as formation of CORT at 100 uM after 60 to 90 mins by radiometric analysis relative to control
# conditionSet: Microsome
parameter: inhibition
Express your answer as a number followed by its unit.

molecule: CN(C)CCCOc1ccc(/C=C2\CC/C(=C\c3ccc(OCCCN(C)C)cc3)C2=O)cc1
parameter: inhibition
valueReported: 2%
//
molecule: CCOc1ccc(/C=C2\CC/C(=C\c3ccc(OCC)cc3)C2=O)cc1
parameter: inhibition
valueReported: 0%
//
molecule: O=C1/C(=C/c2ccc(OC3CCCCO3)cc2)CC/C1=C\c1ccc(OC2CCCCO2)cc1 (stereo not given)
parameter: inhibition
valueReported: 11%
//
molecule: COc1cc(/C=C2\CC/C(=C\c3ccc(OC4CCCCO4)c(OC)c3)C2=O)ccc1OC1CCCCO1 (stereo not given)
parameter: inhibition
valueReported: 13%

Suppose we examine the molecule O=C(/C=C/c1ccc(F)cc1)/C=C/c1ccc(F)cc1 ; what inhibition value has been reported?
2%

Moving on to C=CCOc1ccc(/C=C2\CCC/C(=C\c3ccc(OCC=C)c(OC)c3)C2=O)cc1OC
15%

Moving on to C=CCOc1ccc(/C=C2\CC/C(=C\c3ccc(OCC=C)c(OC)c3)C2=O)cc1OC
14%

Moving on to COc1cc(/C=C2\CCC/C(=C\c3cc(OC)c(OC)c(OC)c3)C2=O)cc(OC)c1OC
35%

Moving on to C=CCOc1ccc(/C=C/C(=O)/C=C/c2ccc(OCC=C)cc2)cc1
0%

Moving on to O=C1/C(=C/c2ccc(O)cc2)CCC/C1=C\c1ccc(O)cc1
63%
